- Test system: ABCG2-482-R2 (ABCG2)
- EXPERIMENT_DESCRIPTION: MTT cytotoxicity/reversal assay (Example 1)
- RUN_CONDITIONS: read-out: IC50 of SN-38, alone

MOLECULE: CCc1c2c(nc3ccc(O)cc13)-c1cc3c(c(=O)n1C2)COC(=O)[C@]3(O)CC [SN-38, 7-ethyl-10-hydroxy-20(S)-camptothecin]
IC50: 3.65 µM

###

- EXPERIMENT_DESCRIPTION: MTT cytotoxicity assay (Example 4)
- Assay type: cell-based
- RUN_CONDITIONS: human; HEK/MRP7; alone; read-out: IC50 of paclitaxel

SMILES_ENTRY: CC(=O)O[C@H]1C(=O)[C@@]2(C)[C@H]([C@H](OC(=O)c3ccccc3)[C@]3(O)C[C@H](OC(=O)[C@H](O)[C@@H](NC(=O)c4ccccc4)c4ccccc4)C(C)=C1C3(C)C)[C@]1(OC(C)=O)CO[C@@H]1C[C@@H]2O
IC50 at 68 h (nM): 107

###

- Test system: MCF-7
- EXPERIMENT_DESCRIPTION: MTT cytotoxicity/reversal assay (Example 2)
- Format: cell-based
- RUN_CONDITIONS: Homo sapiens, MCF7, alone, read-out: IC50 of flavopiridol
PROPERTY: IC50

SMILES_ENTRY: CN1CC[C@H](c2c(O)cc(O)c3c(=O)cc(-c4ccccc4Cl)oc23)[C@H](O)C1
PROPERTY: IC50
VAL: 344 nM

###

- EXPERIMENT_DESCRIPTION: MTT cytotoxicity/reversal assay (Example 1)
- Format: cell-based
- RUN_CONDITIONS: human; HEK/MRP1; alone; read-out: IC50 of vincristine
PROPERTY: IC50 at 68 h (nM)

SMILES_ENTRY: CC[C@]1(O)C[C@H]2CN(CCc3c([nH]c4ccccc34)[C@@](C(=O)OC)(c3cc4c(cc3OC)N(C=O)[C@H]3[C@@](O)(C(=O)OC)[C@H](OC(C)=O)[C@]5(CC)C=CCN6CC[C@]43[C@@H]65)C2)C1
PROPERTY: IC50 at 68 h
VALUE_UNIT: nM
VAL: 10.6

###

- System: HEK293/pcDNA3
- EXPERIMENT_DESCRIPTION: MTT cytotoxicity/reversal assay (Example 2)
- Format: cell-based
- RUN_CONDITIONS: Homo sapiens, alone, read-out: IC50 of flavopiridol
- Experimental: The ABCB1-overexpressing drug resistant cell line KB-V1 (generously provided by Dr. Gottesman, NCI, NIH) was established by a stepwise concentration increase of vinblastine in the culture medium of KB-3-1 cells and subsequently culturing these cells in medium with 1 μg/mL of vinblastine. An ABCC1-overexpressing MDR cell line, KB-CV60, was also derived from KB-3-1 cells and was maintained in medium with 1 μg/mL of cepharanthine and 60 ng/mL of vincristine. […]

COMPOUND: CN1CC[C@H](c2c(O)cc(O)c3c(=O)cc(-c4ccccc4Cl)oc23)[C@H](O)C1 [Flavopiridol, flavopiridol]
EXPERIMENTAL_SYSTEM: HEK293/pcDNA3
IC50, nM: 164

###

- Tested on: KB-3-1
- EXPERIMENT_DESCRIPTION: MTT cytotoxicity/reversal assay (Example 2)
- Type: cell-based, human
- RUN_CONDITIONS: read-out: IC50 of cisplatin, alone
PROPERTY: IC50 (µM)

COMPOUND: N.N.[Cl][Pt][Cl] [Cisplatin, cisplatin]
VALUE_UNIT: µM
VAL: 1.75

###

- Test system: S1-M1-80
- EXPERIMENT_DESCRIPTION: MTT cytotoxicity/reversal assay (Example 2)
- Type: cell-based
- RUN_CONDITIONS: alone, read-out: IC50 of SN-38
pIC50: −log10 of the molar value.

COMPOUND: CCc1c2c(nc3ccc(O)cc13)-c1cc3c(c(=O)n1C2)COC(=O)[C@]3(O)CC [SN-38, 7-ethyl-10-hydroxy-20(S)-camptothecin]
pIC50: 5.45

###

- EXPERIMENTAL_SYSTEM: ABCB1 (Homo sapiens, UniProt P08183)
- Construct: made in house; host or cells: High Five insect cells (membrane vesicles / crude membranes)
- Sequence (P08183 whole entry): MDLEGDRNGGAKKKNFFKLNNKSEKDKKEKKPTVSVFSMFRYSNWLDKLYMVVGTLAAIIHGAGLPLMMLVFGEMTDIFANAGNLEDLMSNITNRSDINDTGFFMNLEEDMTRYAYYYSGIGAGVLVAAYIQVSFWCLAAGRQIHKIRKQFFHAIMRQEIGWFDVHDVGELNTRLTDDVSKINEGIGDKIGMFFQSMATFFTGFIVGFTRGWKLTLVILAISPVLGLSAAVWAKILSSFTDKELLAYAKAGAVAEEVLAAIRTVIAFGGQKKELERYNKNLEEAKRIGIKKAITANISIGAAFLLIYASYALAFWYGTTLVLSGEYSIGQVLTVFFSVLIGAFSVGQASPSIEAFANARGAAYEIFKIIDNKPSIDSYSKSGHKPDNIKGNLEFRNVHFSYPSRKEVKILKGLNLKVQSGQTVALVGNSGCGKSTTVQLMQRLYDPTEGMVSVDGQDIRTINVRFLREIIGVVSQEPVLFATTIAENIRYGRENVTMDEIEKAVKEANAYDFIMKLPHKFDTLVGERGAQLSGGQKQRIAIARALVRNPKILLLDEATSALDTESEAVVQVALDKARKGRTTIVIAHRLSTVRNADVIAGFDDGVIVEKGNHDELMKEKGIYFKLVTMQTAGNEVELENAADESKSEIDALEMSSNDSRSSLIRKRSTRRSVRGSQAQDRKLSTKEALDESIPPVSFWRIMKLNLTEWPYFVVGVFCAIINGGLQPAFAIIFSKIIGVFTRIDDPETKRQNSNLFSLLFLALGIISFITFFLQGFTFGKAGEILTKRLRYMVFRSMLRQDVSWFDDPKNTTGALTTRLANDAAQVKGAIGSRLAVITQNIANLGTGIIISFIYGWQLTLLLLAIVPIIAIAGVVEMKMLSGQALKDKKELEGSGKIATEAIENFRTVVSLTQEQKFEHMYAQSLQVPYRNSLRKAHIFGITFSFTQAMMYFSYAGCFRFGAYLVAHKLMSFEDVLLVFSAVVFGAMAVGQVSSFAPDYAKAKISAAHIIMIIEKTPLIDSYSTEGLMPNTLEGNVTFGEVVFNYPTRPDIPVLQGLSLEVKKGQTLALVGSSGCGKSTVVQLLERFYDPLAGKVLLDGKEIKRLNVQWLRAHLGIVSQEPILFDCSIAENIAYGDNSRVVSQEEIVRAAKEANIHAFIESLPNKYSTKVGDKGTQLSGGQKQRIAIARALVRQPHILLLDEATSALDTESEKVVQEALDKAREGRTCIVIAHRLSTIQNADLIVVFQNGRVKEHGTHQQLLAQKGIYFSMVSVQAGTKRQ
- EXPERIMENT_DESCRIPTION: Vi-sensitive ATPase assay of ABCB1 (Example 1)
- Assay type: biochemical
- RUN_CONDITIONS: ABCB1 membrane vesicles; read-out: concentration required for 50% stimulation of ATPase activity

SMILES_ENTRY: CN1CC(=O)N2[C@H](c3ccc4c(c3)OCO4)c3[nH]c4ccccc4c3C[C@@H]2C1=O
EXPERIMENTAL_SYSTEM: ABCB1 (Homo sapiens, UniProt P08183)
OPERATOR: >
EC50 / nM: 25000
--
SMILES_ENTRY: CCCc1nc(C)c2c(=O)[nH]c(-c3cc(S(=O)(=O)N4CCN(CC)CC4)ccc3OCC)nn12
EXPERIMENTAL_SYSTEM: ABCB1 (Homo sapiens, UniProt P08183)
OPERATOR: =
EC50 / nM: 2690

###

- EXPERIMENTAL_SYSTEM: ABCG2 (Homo sapiens, UniProt Q9UNQ0)
- Sequence (Q9UNQ0 whole entry): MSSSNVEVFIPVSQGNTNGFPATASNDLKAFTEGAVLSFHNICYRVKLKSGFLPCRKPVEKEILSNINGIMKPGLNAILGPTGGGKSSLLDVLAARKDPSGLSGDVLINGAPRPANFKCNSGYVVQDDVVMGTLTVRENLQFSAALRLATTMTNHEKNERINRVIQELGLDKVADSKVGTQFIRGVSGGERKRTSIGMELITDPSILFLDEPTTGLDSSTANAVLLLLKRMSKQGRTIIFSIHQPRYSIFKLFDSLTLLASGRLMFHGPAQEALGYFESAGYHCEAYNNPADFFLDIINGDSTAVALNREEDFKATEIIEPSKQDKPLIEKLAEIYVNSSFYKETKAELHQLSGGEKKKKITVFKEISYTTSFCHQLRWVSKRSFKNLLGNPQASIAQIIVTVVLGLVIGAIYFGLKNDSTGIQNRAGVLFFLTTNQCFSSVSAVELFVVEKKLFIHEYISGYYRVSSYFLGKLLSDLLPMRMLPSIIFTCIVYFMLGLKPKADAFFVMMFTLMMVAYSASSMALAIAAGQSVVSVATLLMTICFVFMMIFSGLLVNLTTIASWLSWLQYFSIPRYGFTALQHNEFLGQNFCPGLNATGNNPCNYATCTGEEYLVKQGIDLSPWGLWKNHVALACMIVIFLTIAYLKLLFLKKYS
- EXPERIMENT_DESCRIPTION: Vi-sensitive ATPase assay (Example 2)
- RUN_CONDITIONS: read-out: concentration required for 50% stimulation of ATPase activity
PROPERTY: EC50

COMPOUND: CCCc1nn(C)c2c(=O)nc(-c3cc(S(=O)(=O)N4CCN(C)CC4)ccc3OCC)[nH]c12 [Sildenafil, sildenafil]
PROPERTY: EC50
VAL: 250 to 500 nM

###

- System: HEK/ABCG2-G2
- EXPERIMENT_DESCRIPTION: MTT cytotoxicity/reversal assay (Example 2)
- RUN_CONDITIONS: read-out: IC50 of SN-38; HEK/ABCG2-G2; alone
- Experimental: The ABCB1-overexpressing drug resistant cell line KB-V1 (generously provided by Dr. Gottesman, NCI, NIH) was established by a stepwise concentration increase of vinblastine in the culture medium of KB-3-1 cells and subsequently culturing these cells in medium with 1 μg/mL of vinblastine. An ABCC1-overexpressing MDR cell line, KB-CV60, was also derived from KB-3-1 cells and was maintained in medium with 1 μg/mL of cepharanthine and 60 ng/mL of vincristine. […]
PROPERTY: IC50 (nM)

COMPOUND: CCc1c2c(nc3ccc(O)cc13)-c1cc3c(c(=O)n1C2)COC(=O)[C@]3(O)CC [SN-38, 7-ethyl-10-hydroxy-20(S)-camptothecin]
VALUE_UNIT: nM
VAL: 204

###

- Test system: MCF-7
- EXPERIMENT_DESCRIPTION: MTT cytotoxicity/reversal assay (Example 2)
- Type: cell-based
- RUN_CONDITIONS: alone, read-out: IC50 of SN-38

COMPOUND: CCc1c2c(nc3ccc(O)cc13)-c1cc3c(c(=O)n1C2)COC(=O)[C@]3(O)CC [SN-38, 7-ethyl-10-hydroxy-20(S)-camptothecin]
IC50, nM: 1220
